Tested on: primary human fibroblasts derived from IPF patients (LL29 cells)
TEST_DETAILS: Inhibition of fibrosis (αSMA) in TGF-β1 treated primary human fibroblasts from IPF patients
Assay type: cell-based
SETTINGS: Fibroblast, 96 h, TGF-β1 20 ng/mL, 4 days, % αSMA positive cells
Output MET for records whose EC50 is lower than 0.1 nM, NOT MET for records at or above 0.1 nM.

>  <MOLECULE>
FC1(F)CCN(Cc2cncc(-c3ccc4[nH]nc(-c5nc6c(N7CCCCC7)ccnc6[nH]5)c4c3)c2)C1 [Compound 181]

>  <LABEL_CLASS>
MET

$$$$
>  <MOLECULE>
O=C(Nc1cncc(-c2ccc3[nH]nc(-c4nc5c(-c6ccc(F)cc6)ccnc5[nH]4)c3c2)c1)C1CCC1 [Compound 46]

>  <LABEL_CLASS>
MET

$$$$
>  <MOLECULE>
Cn1cc(-c2ccc3[nH]nc(-c4nc5c(-c6cccc(F)c6)ccnc5[nH]4)c3c2)cn1 [Compound 1876]

>  <LABEL_CLASS>
NOT MET

$$$$

Ask: Problem: For the molecule CCCCC(=O)Nc1cncc(-c2ccc3[nH]nc(-c4nc5c(-c6ccoc6)ccnc5[nH]4)c3c2)c1 [Compound 304] , is EC50 under 0.1 nM?
Reply: MET

Ask: Strictly below 0.1 nM: is that where EC50 of CC(C)(C)C(=O)Nc1cncc(-c2ccc3[nH]nc(-c4nc5c(-c6ccc(F)cc6)ccnc5[nH]4)c3c2)c1 [Compound 34] sits?
Reply: NOT MET

Ask: Regarding c1cncc(-c2ccc3[nH]nc(-c4nc5cccnc5[nH]4)c3c2)c1 [Compound 238] , kindly confirm whether its EC50 is beneath 0.1 nM.
Reply: MET

Ask: # TODO verify EC50 < 0.1 nM strictly for this molecule: Fc1ccc(-c2ccnc3[nH]c(-c4n[nH]c5ccc(-c6cncnc6)cc45)nc23)cc1 [Compound 52]
Reply: NOT MET

Ask: Item CN(C)CCOc1cncc(-c2ccc3[nH]nc(-c4nc5c(-c6cccc(F)c6)ccnc5[nH]4)c3c2)c1 [Compound 1883] : EC50 beneath 0.1 nM, strictly?
Reply: MET

###

Test system: primary human mesenchymal stem cells (hMSCs)
TEST_DETAILS: Chondrogenesis induction screen in primary human mesenchymal stem cells
Format: cell-based
SETTINGS: 6 days, chondrogenic nodules, dose range 10-2700 nM
Entries and their measured Conc (nM) of Max. activity follow.
Please state the figure in nM; there is no need to write the unit.

CC(C)(C)C(=O)Nc1cncc(-c2ccc3[nH]nc(-c4nc5c(-c6ccc(F)s6)ccnc5[nH]4)c3c2)c1 yielded Conc (nM) of Max. activity of 300

Conc (nM) of Max. activity reading for CN(C)c1cncc(-c2ccc3[nH]nc(-c4nc5c(-c6cccc(F)c6)ccnc5[nH]4)c3c2)c1 : 100

Query CCCCC(=O)Nc1cncc(-c2ccc3[nH]nc(-c4nc5c(-c6ccccn6)ccnc5[nH]4)c3c2)c1 yields Conc (nM) of Max. activity of 100

Notebook: Oc1cncc(-c2ccc3[nH]nc(-c4nc5c(-c6cccc(F)c6)ccnc5[nH]4)c3c2)c1 , Conc (nM) of Max. activity read as 100

###

System: primary human fibroblasts derived from IPF patients (LL29 cells)
TEST_DETAILS: Inhibition of fibrosis (αSMA) in TGF-β1 treated primary human fibroblasts from IPF patients
Type: cell-based
SETTINGS: Fibroblast, 96 h, TGF-β1 20 ng/mL, 4 days, % αSMA positive cells
Strictly below 80 pM in EC50: TRUE. Otherwise: FALSE.

These recorded examples may help you get a feel for the data.
>  <COMPOUND>
CC(C)(C)C(=O)Nc1cncc(-c2ccc3[nH]nc(-c4nc5c(-c6ccc(F)s6)ccnc5[nH]4)c3c2)c1 [Compound 346]

>  <LABEL_CLASS>
TRUE

$$$$
>  <COMPOUND>
O=C(Cc1ccccc1)Nc1cncc(-c2ccc3[nH]nc(-c4nc5c(-c6ccsc6)ccnc5[nH]4)c3c2)c1 [Compound 270]

>  <LABEL_CLASS>
TRUE

$$$$
>  <COMPOUND>
CCCC(=O)Nc1cncc(-c2ccc3[nH]nc(-c4nc5c(-c6ccsc6)ccnc5[nH]4)c3c2)c1 [Compound 277]

>  <LABEL_CLASS>
TRUE

$$$$
>  <COMPOUND>
O=C(Nc1cncc(-c2ccc3[nH]nc(-c4nc5c(-c6ccccn6)ccnc5[nH]4)c3c2)c1)C1CCC1 [Compound 150]

>  <LABEL_CLASS>
FALSE

$$$$
>  <COMPOUND>
Cc1ccncc1-c1ccc2[nH]nc(-c3nc4c(-c5cc(F)cc(CNS(C)(=O)=O)c5)ccnc4[nH]3)c2c1 [Compound 421]

>  <LABEL_CLASS>
TRUE

$$$$

For the next question, use this compound.
Ask: Lab note: confirm whether the reported EC50 for this compound is below 80 pM, equality not counting. compound: CCNCc1cncc(-c2ccc3[nH]nc(-c4nc5c(-c6cc(F)cc(NCCN(C)C)c6)ccnc5[nH]4)c3c2)c1 [Compound 448]
Reply: FALSE

###

System: primary human mesenchymal stem cells (hMSCs)
TEST_DETAILS: Chondrogenesis induction screen in primary human mesenchymal stem cells
Format: cell-based
SETTINGS: 6 days, chondrogenic nodules, dose range 10-2700 nM
QUANTITY_KIND: Conc (nM) of Max. activity

>  <SMILES_STRING>
Cc1ccncc1-c1ccc2[nH]nc(-c3nc4c(-c5ccncc5)ccnc4[nH]3)c2c1

>  <QUANTITY_KIND>
Conc (nM) of Max. activity

>  <RESULT_VALUE>
30 nM

$$$$

molecule Fc1cccc(-c2ccnc3[nH]c(-c4n[nH]c5ccc(-c6cn[nH]c6)cc45)nc23)c1 , Conc (nM) of Max. activity observed: 2700 nM

Entry Fc1cccc(-c2ccnc3[nH]c(-c4n[nH]c5ccc(-c6cncc(CN7CCC(F)(F)C7)c6)cc45)nc23)c1 , Conc (nM) of Max. activity reported as 30 nM

Kindly note the recorded Conc (nM) of Max. activity for CCCC(=O)Nc1cncc(-c2ccc3[nH]nc(-c4nc5c(-c6ccsc6)ccnc5[nH]4)c3c2)c1 , which is 30 nM

###

Recorded EC50, one value per entry.
Test system: primary human fibroblasts derived from IPF patients (LL29 cells)
TEST_DETAILS: Inhibition of fibrosis (αSMA) in TGF-β1 treated primary human fibroblasts from IPF patients
Type: cell-based
SETTINGS: Fibroblast, 96 h, TGF-β1 20 ng/mL, 4 days, % αSMA positive cells
Dear colleague, please return just the value in nM, with no unit written.

Previously resolved entries follow.
>  <SMILES_STRING>
Cc1ccc(-c2ccnc3[nH]c(-c4n[nH]c5ccc(-c6cncc(NC(=O)C(C)C)c6)cc45)nc23)s1

>  <TARGET_OR_TEST_SYSTEM>
primary human fibroblasts derived from IPF patients (LL29 cells)

>  <QUANTITY_KIND>
EC50

>  <RESULT_VALUE>
0.045

$$$$
>  <SMILES_STRING>
Oc1cncc(-c2ccc3[nH]nc(-c4nc5c(-c6cccc(F)c6)ccnc5[nH]4)c3c2)c1

>  <TARGET_OR_TEST_SYSTEM>
primary human fibroblasts derived from IPF patients (LL29 cells)

>  <QUANTITY_KIND>
EC50

>  <RESULT_VALUE>
0.009

$$$$
>  <SMILES_STRING>
c1cncc(-c2ccc3[nH]nc(-c4nc5c(-c6cccnc6)ccnc5[nH]4)c3c2)c1

>  <TARGET_OR_TEST_SYSTEM>
primary human fibroblasts derived from IPF patients (LL29 cells)

>  <QUANTITY_KIND>
EC50

>  <RESULT_VALUE>
0.303

$$$$
>  <SMILES_STRING>
CCNCc1cncc(-c2ccc3[nH]nc(-c4nc5c(-c6ccccn6)ccnc5[nH]4)c3c2)c1

>  <TARGET_OR_TEST_SYSTEM>
primary human fibroblasts derived from IPF patients (LL29 cells)

>  <QUANTITY_KIND>
EC50

>  <RESULT_VALUE>
1.77

$$$$
>  <SMILES_STRING>
Cc1ccc(-c2ccnc3[nH]c(-c4n[nH]c5ccc(-c6cncc(NC(=O)C(C)(C)C)c6)cc45)nc23)s1

>  <TARGET_OR_TEST_SYSTEM>
primary human fibroblasts derived from IPF patients (LL29 cells)

>  <QUANTITY_KIND>
EC50

>  <RESULT_VALUE>
0.009

$$$$
>  <SMILES_STRING>
O=C(Nc1cncc(-c2ccc3[nH]nc(-c4nc5c(-c6ccsc6)ccnc5[nH]4)c3c2)c1)c1ccccc1

>  <TARGET_OR_TEST_SYSTEM>
primary human fibroblasts derived from IPF patients (LL29 cells)

>  <QUANTITY_KIND>
EC50

>  <RESULT_VALUE>
0.068

$$$$

In the following, a different molecule is considered.
Entry CCCCC(=O)Nc1cncc(-c2ccc3[nH]nc(-c4nc5c(-c6cc(F)cc(NCCN(C)C)c6)ccnc5[nH]4)c3c2)c1 : EC50 on primary human fibroblasts derived from IPF patients (LL29 cells) = 0.111

Every entry's value here was drawn from patent US10280166B2.
